experiment: Inhibition of Trypanosoma brucei P1 transporter assessed as reduction in [3H]-adenosine uptake by scintillation counting method
Endpoint: Ki
Express the reported value numerically, then name its unit.

Query :: Tell us which Ki value is on record for Nc1ncnc2c1ccn2[C@@H]1O[C@H](CO)[C@@H](O)[C@H]1O
Result :: 78 µM

###

experiment: Selectivity index, ratio of EC50 for cytotoxicity against human MRC5 cells to EC50 for antitrypanosomal activity against Trypanosoma brucei rhodesiense; assay type: toxicity, cell-based; conditions: read-out: Ratio EC50
Use 1 (yes) when the recorded selectivity ratio is no lower than 40; use 0 (no) when it is lower.

Query :: Is selectivity ratio at least 40? Consider COc1ncnc2c1c(-c1ccc(Cl)cc1)cn2[C@@H]1O[C@H](CO)[C@@H](O)[C@H]1O
Result :: 0 (no)

Query :: Please indicate if the recorded selectivity ratio for CC(C)Oc1ncnc2c1c(Cl)cn2[C@@H]1O[C@H](CO)[C@@H](O)[C@H]1O meets or exceeds 40.
Result :: 1 (yes)

Query :: For this molecule, is measured selectivity ratio 40 or higher? OC[C@H]1O[C@@H](n2cc(Cl)c3c(OCCc4ccccc4)ncnc32)[C@H](O)[C@@H]1O
Result :: 0 (no)

Query :: Decide: is the reported value of selectivity ratio for O=c1[nH]cnc2c1ccn2[C@@H]1O[C@H](CO)[C@@H](O)[C@H]1O equal to or greater than 40?
Result :: 0 (no)

Query :: Please tell me: is the molecule CCCCOc1ncnc2c1c(Cl)cn2[C@@H]1O[C@H](CO)[C@@H](O)[C@H]1O at or over 40 in terms of selectivity ratio?
Result :: 0 (no)

Query :: Assess whether reported selectivity ratio for COc1nc(N)nc2c1c(Br)cn2[C@@H]1O[C@H](CO)[C@@H](O)[C@H]1O sits at 40 or higher.
Result :: 1 (yes)

Query :: Exam item: decide whether the reported selectivity ratio for Nc1nc(Cl)c2c(Br)cn([C@@H]3O[C@H](CO)[C@@H](O)[C@H]3O)c2n1 is at least 40.
Result :: 1 (yes)

Query :: Does the reported selectivity ratio for OC[C@H]1O[C@@H](n2cc(C(F)(F)F)c3c(O)ncnc32)[C@H](O)[C@@H]1O fall at or above the 40 mark?
Result :: 0 (no)

Query :: Hi team, for O=c1[nH]cnc2c1c(F)cn2[C@@H]1O[C@H](CO)[C@@H](O)[C@H]1O , is the recorded selectivity ratio at or above 40?
Result :: 0 (no)

Query :: Answer whether selectivity ratio of OC[C@H]1O[C@@H](n2cc(Cl)c3c(OC4CCCC4)ncnc32)[C@H](O)[C@@H]1O is greater than or equal to 40.
Result :: 1 (yes)

Query :: Does selectivity ratio meet or surpass 40 for COc1ncnc2c1c(Cl)cn2[C@@H]1O[C@H](CO)[C@@H](O)[C@H]1O ?
Result :: 1 (yes)

Query :: Test whether the molecule COc1ncnc2c1c(I)cn2[C@@H]1O[C@H](CO)[C@@H](O)[C@H]1O records selectivity ratio of 40 or higher.
Result :: 1 (yes)

Query :: Quick check, selectivity ratio >= 40? CCCCCOc1ncnc2c1c(Cl)cn2[C@@H]1O[C@H](CO)[C@@H](O)[C@H]1O
Result :: 0 (no)

Query :: Quick check: does CC(C)COc1ncnc2c1c(Cl)cn2[C@@H]1O[C@H](CO)[C@@H](O)[C@H]1O have selectivity ratio greater than or equal to 40?
Result :: 1 (yes)

Source listed as ChEMBL document CHEMBL4680158.
